meta.source: patent US20260242735A1

Each record here notes measured Mean % WT Binding.
target: human CD33 H346A (human, UniProt P20138 18-364); experiment: flow cytometry, alanine scan
Sequence (P20138 18-364 H346A limits assumed): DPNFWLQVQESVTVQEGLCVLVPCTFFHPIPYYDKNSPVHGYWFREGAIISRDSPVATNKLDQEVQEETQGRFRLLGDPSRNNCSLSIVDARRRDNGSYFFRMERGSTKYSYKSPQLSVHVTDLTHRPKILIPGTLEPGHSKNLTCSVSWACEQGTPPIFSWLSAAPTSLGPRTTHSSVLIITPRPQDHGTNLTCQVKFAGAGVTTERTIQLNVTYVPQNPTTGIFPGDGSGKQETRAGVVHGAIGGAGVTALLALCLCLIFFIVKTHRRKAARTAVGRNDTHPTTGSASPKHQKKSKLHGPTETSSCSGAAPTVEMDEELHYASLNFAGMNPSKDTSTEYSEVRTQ

| binder | Mean % WT Binding |
| --- | --- |
| Refmab #4 (antibody, V domains shown, The alanine scan used IgG or Fab) VH: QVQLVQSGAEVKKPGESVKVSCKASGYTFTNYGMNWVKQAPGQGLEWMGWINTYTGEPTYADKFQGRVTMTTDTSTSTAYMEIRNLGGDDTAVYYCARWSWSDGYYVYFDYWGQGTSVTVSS VL: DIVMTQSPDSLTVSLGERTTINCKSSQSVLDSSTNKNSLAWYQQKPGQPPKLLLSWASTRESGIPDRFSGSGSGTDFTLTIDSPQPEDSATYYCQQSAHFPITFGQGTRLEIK | 111 % of WT |
| Refmab #3 (antibody, V domains shown, The alanine scan used IgG or Fab) VH: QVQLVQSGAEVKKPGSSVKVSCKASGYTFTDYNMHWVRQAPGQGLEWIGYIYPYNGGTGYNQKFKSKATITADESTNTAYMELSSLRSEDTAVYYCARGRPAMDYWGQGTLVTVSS VL: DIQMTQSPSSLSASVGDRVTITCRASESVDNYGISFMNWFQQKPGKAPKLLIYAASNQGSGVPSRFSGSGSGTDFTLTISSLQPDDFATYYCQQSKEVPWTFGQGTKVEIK | 133 % of WT |
| Refmab #2 (antibody, V domains shown, The alanine scan used IgG or Fab) VH: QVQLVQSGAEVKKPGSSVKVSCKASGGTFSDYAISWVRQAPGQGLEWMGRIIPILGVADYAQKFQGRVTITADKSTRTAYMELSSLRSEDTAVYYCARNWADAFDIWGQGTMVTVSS VL: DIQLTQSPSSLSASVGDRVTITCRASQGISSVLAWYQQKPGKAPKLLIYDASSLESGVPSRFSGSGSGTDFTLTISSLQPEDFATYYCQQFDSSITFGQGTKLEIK | 118 % of WT |
| Refmab #1 (antibody, V domains shown, The alanine scan used IgG or Fab; also called hP67.6) VH: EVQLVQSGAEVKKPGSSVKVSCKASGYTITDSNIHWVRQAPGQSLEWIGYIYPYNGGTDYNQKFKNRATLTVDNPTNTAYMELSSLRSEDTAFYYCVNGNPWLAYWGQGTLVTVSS VL: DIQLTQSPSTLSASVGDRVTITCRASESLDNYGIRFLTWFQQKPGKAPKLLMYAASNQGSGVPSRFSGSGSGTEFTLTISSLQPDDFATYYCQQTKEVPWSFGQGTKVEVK | 81.8 % of WT |
